measurement-target: 5-HT1A receptor (Rattus norvegicus, UniProt P19327)
Sequence (P19327 whole entry): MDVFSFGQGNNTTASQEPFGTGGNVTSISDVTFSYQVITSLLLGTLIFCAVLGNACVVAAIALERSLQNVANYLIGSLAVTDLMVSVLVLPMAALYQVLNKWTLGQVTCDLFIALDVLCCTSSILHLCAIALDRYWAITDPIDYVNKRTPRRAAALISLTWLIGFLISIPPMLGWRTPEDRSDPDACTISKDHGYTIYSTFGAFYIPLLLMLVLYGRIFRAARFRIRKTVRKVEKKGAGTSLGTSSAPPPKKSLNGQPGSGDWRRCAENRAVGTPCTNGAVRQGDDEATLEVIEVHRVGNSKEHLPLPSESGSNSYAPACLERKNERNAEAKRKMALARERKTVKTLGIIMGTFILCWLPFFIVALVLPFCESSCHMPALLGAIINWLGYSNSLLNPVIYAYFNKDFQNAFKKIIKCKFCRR
protocol-description: [3H]-8-OH-DPAT radioligand binding assay
experimental-parameters: read-out: 5-HT1A Binding Inhibition (%) [300 μM]
Parameter: inhibition at 300 µM. Scope: all listed entries.

A selection of reference data follows.
[[record]]
molecule = "O=C(/C=C/c1cccc(Cl)c1)c1ccccc1 [Compound 18]"
measurement_target = "5-HT1A receptor (Rattus norvegicus, UniProt P19327)"
measure_name = "inhibition at 300 µM"
recorded_result = "20 to 40%"

[[record]]
molecule = "O=C(/C=C/c1ccccc1)c1cc(Br)cc(Br)c1O [Compound 10]"
measurement_target = "5-HT1A receptor (Rattus norvegicus, UniProt P19327)"
measure_name = "inhibition at 300 µM"
recorded_result = "60 to 90%"

[[record]]
molecule = "Cc1cc(C(=O)/C=C/c2ccccc2)c(O)c([N+](=O)[O-])c1 [Compound 12]"
measurement_target = "5-HT1A receptor (Rattus norvegicus, UniProt P19327)"
measure_name = "inhibition at 300 µM"
recorded_result = "< 20%"

[[record]]
molecule = "Cc1ccc(C(=O)/C=C/c2ccccc2)cc1 [Compound 15]"
measurement_target = "5-HT1A receptor (Rattus norvegicus, UniProt P19327)"
measure_name = "inhibition at 300 µM"
recorded_result = "40 to 60%"

[[record]]
molecule = "O=C(/C=C/c1ccc(Cl)cc1)c1ccccc1 [Compound 19]"
measurement_target = "5-HT1A receptor (Rattus norvegicus, UniProt P19327)"
measure_name = "inhibition at 300 µM"
recorded_result = "< 20%"

[[record]]
molecule = "COc1cc(C(=O)/C=C/c2ccccc2)ccc1O [Compound 13]"
measurement_target = "5-HT1A receptor (Rattus norvegicus, UniProt P19327)"
measure_name = "inhibition at 300 µM"
recorded_result = "40 to 60%"


Which inhibition at 300 µM value is on record for COc1ccc(O)c(C(=O)/C=C/c2ccccc2)c1 [Compound 4] ?
60 to 90%

Which inhibition at 300 µM value is on record for Cc1ccc(O)c(C(=O)/C=C/c2ccccc2)c1 [Compound 9] ?
40 to 60%

Which inhibition at 300 µM value is on record for COc1ccc(C(=O)/C=C/c2ccccc2)c(O)c1 [Compound 3] ?
20 to 40%

Which inhibition at 300 µM value is on record for Nc1ccc(C(=O)/C=C/c2cccc([N+](=O)[O-])c2)cc1 [Compound 21] ?
60 to 90%
